Source: the supplement of paper PMC10567573

B1: VPS39 (parent)
chain: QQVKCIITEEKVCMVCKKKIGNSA

variants of: B1; assay: protein stability index of a GFP-peptide fusion (GPS, HEK-293T) (PSI 1-6); higher = more stable; conditions: c terminus: a fixed tail appended;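 further: lentivirally expressed fusions sorted by FACS into six bins by GFP to DsRed ratio, PSI derived from sequencing read proportions per bin multiplied by bin number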
# Lookup of reported protein stability index keyed by entry
Please reply with the number alone, leaving off any unit.

Worked cases, protein stability index given:
{"sequence-variant": "K17E", "measured": 3.21}
{"sequence-variant": "I7E", "measured": 3.01}
{"sequence-variant": "V15P", "measured": 3.99}
{"sequence-variant": "K4C", "measured": 3.6}
{"sequence-variant": "G21E", "measured": 3.32}

Entry V3S , protein stability index reported as 3.17

protein stability index recorded for this variant, C5A , is 3.02

// Q1V : protein stability index value = 1.11

# protein stability index (variant: C16E ) is 4.29

Measured protein stability index of I7K : 2.9

Record K11R . Reported protein stability index: 2.9

Looking up Q2L , I see its protein stability index listed as 2.4

In plain terms, K11Q has a documented protein stability index of 2.84

Short answer for E10R : protein stability index was 2.23

Looking up E10W , I see its protein stability index listed as 2.44

Given item E10K , the value recorded as its protein stability index is 2.54

Noted for C13I : its protein stability index reads 3.09

For this variant ( K17D ), measured protein stability index is 3.68

Per the records, this variant ( C16K ) has protein stability index equal to 3.41

Briefly, protein stability index measured for K4F : 1.42

Entry T8E , protein stability index reported as 3.48
